Measured values drawn from ChEMBL document CHEMBL1138503 for this set.

- Assay overview: Cytotoxicity against HFF cells by neutral red uptake assay
- Assay type: cell-based
- Test parameters: human, HFF cells
Observable: CC50

Exercise: For Nc1nc(O)c2ncn(COC(CO)CO)c2n1 [GANCICLOVIR] , write its CC50.
Key: > 100 µM

Exercise: For Nc1nc2c(ncn2/C=C2/CC2(CO)CO)c(=O)[nH]1 [FILOCICLOVIR] , write its CC50.
Key: > 100 µM

---

- Assay overview: Cytotoxicity against human Akata cells
- Type: cell-based
- Test parameters: akata
Observable: CC50 (µM)
Quick note: give the figure in µM, leave out the unit.

# Sample smiles, CC50, µM
data = [
    ("Nc1ncnc2c1ncn2/C=C1\\C[C@H]1[C@@H](O)CO", 73),
]

Exercise: For `Nc1nc2c(ncn2/C=C2/C[C@H]2[C@@H](O)CO)c(=O)[nH]1` , write its CC50.
Key: 78

Exercise: For `Nc1nc2c(ncn2/C=C2/C[C@H]2[C@H](O)CO)c(=O)[nH]1` , write its CC50.
Key: 62.6

Exercise: For `Nc1nc2c(ncn2/C=C2\C[C@H]2[C@@H](O)CO)c(=O)[nH]1` , write its CC50.
Key: 75

Exercise: For `Nc1ncnc2c1ncn2/C=C1/C[C@H]1[C@H](O)CO` , write its CC50.
Key: 93.5

---

- Assay overview: Cytotoxicity against african green monkey BSC1 cells
- Assay type: cell-based
- Test parameters: chlorocebus aethiops, bsc-1
Observable: CC50

Exercise: For `Nc1nc2c(ncn2/C=C2/C[C@H]2[C@@H](O)CO)c(=O)[nH]1` , write its CC50.
Key: > 100 µM

---

- Tested system: Adenosine deaminase (Bos taurus) (UniProt P56658)
- Sequence (P56658 whole entry): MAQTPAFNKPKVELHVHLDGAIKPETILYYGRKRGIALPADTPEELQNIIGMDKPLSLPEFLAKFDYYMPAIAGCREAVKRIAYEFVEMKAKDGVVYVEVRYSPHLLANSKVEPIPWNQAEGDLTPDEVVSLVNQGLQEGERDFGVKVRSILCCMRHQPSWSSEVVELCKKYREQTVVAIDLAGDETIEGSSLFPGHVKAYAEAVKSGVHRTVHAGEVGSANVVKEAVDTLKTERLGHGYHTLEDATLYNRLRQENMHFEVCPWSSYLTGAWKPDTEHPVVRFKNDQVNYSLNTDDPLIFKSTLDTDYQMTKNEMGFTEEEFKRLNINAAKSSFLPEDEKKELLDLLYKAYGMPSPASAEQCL
- Assay overview: Activity of calf intestine adenosine deaminase assessed as deamination after 24 hrs
- Set-up: concentration or dose not given beside the values
Observable: Activity (%)
Quick note: give the figure in %, leave out the unit.

Study these solved cases before continuing.
# Sample smiles, Uom, Activity
data = [
    ("Nc1ncnc2c1ncn2/C=C1/C[C@@H]1[C@H](O)CO", "%", 45),
    ("Nc1ncnc2c1ncn2/C=C1/C[C@@H]1[C@@H](O)CO", "%", 65),
    ("Nc1ncnc2c1ncn2/C=C1/C[C@H]1[C@H](O)CO", "%", 0),
    ("Nc1ncnc2c1ncn2/C=C1\\C[C@H]1[C@@H](O)CO", "%", 100),
    ("Nc1ncnc2c1ncn2/C=C1\\C[C@@H]1[C@H](O)CO", "%", 85),
]

Exercise: For `Nc1ncnc2c1ncn2/C=C1\C[C@H]1[C@H](O)CO` , write its Activity.
Key: 65

Exercise: For `Nc1ncnc2c1ncn2/C=C1/C[C@H]1[C@@H](O)CO` , write its Activity.
Key: 0

Exercise: For `Nc1ncnc2c1ncn2/C=C1\C[C@@H]1[C@@H](O)CO` , write its Activity.
Key: 100

---

Reported CC50 by item:
- Assay overview: Cytotoxicity against HFF cells by plaque reduction assay
- Assay type: cell-based
- Test parameters: human, HFF cells

# Sample smiles, CC50
records = [
    ("Nc1nc(O)c2ncn(COC(CO)CO)c2n1", "> 100 µM"),
]

Shifting focus to the compound that follows.
Exercise: For `Nc1nc2c(ncn2/C=C2/CC2(CO)CO)c(=O)[nH]1` , write its CC50.
Key: > 100 µM
